Recorded values, source patent US10851105B2.

Study target: FGFR1 (Homo sapiens (Human))
Assay remarks: FGFR Enzymatic Assay (FRET peptide phosphorylation), FGFR1
Run parameters: FGFR1 IC50 (nM), pre-incubated for 5 to 10 minutes
Endpoint name: IC50

[
  {
    "Compound": "C=CC(=O)N(C)c1cc2c(cn1)CN(c1c(F)c(OC)cc(OC)c1F)C(=O)C21CC1",
    "IC50": "30 to 200 nM"
  },
  {
    "Compound": "C=CC(=O)Nc1ccccc1Nc1cc2c(cn1)CN(c1c(F)c(OC)cc(OC)c1F)C(=O)C21CCCC1",
    "IC50": "30 to 200 nM"
  },
  {
    "Compound": "C=CC(=O)NC1COCC1Nc1cc2c(cn1)CN(c1c(F)c(OC)cc(OC)c1F)C(=O)C21CC1 (racemic)",
    "IC50": "> 200 nM"
  },
  {
    "Compound": "C=CC(=O)NC1CCCCC1Nc1cc2c(cn1)CN(c1c(F)c(OC)cc(OC)c1F)C(=O)C21CC1 (racemic)",
    "IC50": "> 200 nM"
  }
]

Continue with the compound presented below.
Just so you know, measured IC50 for `C=CC(=O)Nc1ccccc1Nc1cc2c(cn1)CN(c1c(F)c(OC)cc(OC)c1F)C(=O)C21CC1` came out at 30 to 200 nM

----------
Study target: FGFR1 (Homo sapiens (Human), UniProt P11362)
Sequence (P11362 22-822): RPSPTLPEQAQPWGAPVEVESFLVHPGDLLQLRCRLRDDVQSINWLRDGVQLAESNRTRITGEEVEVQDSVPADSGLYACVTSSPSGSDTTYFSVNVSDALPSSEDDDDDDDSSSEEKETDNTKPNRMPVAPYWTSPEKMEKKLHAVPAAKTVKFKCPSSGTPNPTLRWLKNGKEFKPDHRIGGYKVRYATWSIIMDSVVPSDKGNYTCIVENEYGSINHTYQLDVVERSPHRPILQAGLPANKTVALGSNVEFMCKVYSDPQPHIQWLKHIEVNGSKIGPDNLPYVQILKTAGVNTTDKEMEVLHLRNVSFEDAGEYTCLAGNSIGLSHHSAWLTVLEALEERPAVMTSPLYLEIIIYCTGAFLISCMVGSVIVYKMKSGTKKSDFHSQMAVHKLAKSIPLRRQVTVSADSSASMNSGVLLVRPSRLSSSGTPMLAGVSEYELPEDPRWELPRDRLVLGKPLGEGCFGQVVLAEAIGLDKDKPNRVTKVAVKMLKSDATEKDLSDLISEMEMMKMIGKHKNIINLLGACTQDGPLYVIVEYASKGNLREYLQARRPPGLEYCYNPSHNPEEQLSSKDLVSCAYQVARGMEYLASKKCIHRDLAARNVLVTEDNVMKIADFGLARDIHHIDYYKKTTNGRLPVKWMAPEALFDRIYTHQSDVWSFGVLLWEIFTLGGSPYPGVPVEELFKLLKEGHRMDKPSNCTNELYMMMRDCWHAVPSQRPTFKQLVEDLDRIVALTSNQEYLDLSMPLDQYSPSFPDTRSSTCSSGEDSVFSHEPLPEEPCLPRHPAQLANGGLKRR
Assay remarks: FGFR Enzymatic Assay (FRET peptide phosphorylation), FGFR1
Run parameters: IC50 ratio, pre-incubated for 4 hours
Endpoint name: FGFR1/FGFR4

[
  {
    "Compound": "C=CC(=O)NC1CCCCC1Nc1cc2c(cn1)CN(c1c(F)c(OC)cc(OC)c1F)C(=O)C21CC1 (racemic)",
    "FGFR1/FGFR4": ">25"
  },
  {
    "Compound": "C=CC(=O)Nc1ccccc1Nc1cc2c(cn1)CN(c1c(F)c(OC)cc(OC)c1F)C(=O)C21CCOCC1",
    "FGFR1/FGFR4": ">100"
  },
  {
    "Compound": "C=CC(=O)NC1COCC1Nc1cc2c(cn1)CN(c1c(F)c(OC)cc(OC)c1F)C(=O)C21CC1 (racemic)",
    "FGFR1/FGFR4": ">100"
  },
  {
    "Compound": "C=CC(=O)N[C@H]1CCC[C@H]1Oc1ncc2c(n1)C1(CC1)C(=O)N(c1c(F)c(OC)cc(OC)c1F)C2",
    "FGFR1/FGFR4": ">100"
  }
]

Continue with the compound presented below.
For `C=CC(=O)Nc1cccc(C)c1Nc1cc2c(cn1)CN(c1c(F)c(OC)cc(OC)c1F)C(=O)C21CC1` on FGFR1 (Homo sapiens (Human), UniProt P11362), measured FGFR1/FGFR4 was >100

----------
Study target: FGFR2 (Homo sapiens (Human), UniProt P21802)
Sequence (P21802 22-821): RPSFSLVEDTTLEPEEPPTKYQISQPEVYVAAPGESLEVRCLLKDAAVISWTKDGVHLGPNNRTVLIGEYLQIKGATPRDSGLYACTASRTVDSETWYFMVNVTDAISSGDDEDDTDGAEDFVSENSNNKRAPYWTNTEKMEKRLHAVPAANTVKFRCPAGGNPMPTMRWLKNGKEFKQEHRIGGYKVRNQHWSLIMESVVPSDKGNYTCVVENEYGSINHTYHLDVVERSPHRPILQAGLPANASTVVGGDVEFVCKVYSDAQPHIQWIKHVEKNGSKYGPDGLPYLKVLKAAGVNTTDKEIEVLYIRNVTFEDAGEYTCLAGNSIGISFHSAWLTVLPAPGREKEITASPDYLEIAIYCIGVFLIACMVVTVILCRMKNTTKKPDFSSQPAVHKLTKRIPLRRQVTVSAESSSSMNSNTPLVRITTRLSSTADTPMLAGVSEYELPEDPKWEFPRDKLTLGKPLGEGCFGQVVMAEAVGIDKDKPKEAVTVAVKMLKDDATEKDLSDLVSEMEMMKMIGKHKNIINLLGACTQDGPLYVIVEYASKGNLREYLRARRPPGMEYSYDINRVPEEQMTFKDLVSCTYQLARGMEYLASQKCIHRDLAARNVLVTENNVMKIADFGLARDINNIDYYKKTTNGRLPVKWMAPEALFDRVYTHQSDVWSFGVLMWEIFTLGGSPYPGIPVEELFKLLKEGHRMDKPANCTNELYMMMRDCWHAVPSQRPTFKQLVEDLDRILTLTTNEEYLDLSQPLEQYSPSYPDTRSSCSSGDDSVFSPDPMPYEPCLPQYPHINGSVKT
Assay remarks: FGFR Enzymatic Assay (FRET peptide phosphorylation), FGFR2
pIC50: −log10 of the molar value.
Endpoint name: pIC50

[
  {
    "Molecule": "C=CC(=O)Nc1ccccc1Nc1cc2c(cn1)CN(c1c(F)c(OC)cc(OC)c1F)C(=O)C21CC1 [Example 1]",
    "Test value": "6.70 to 7.52"
  }
]

Just so you know, measured pIC50 for C=CC(=O)Nc1ccccc1Nc1cc2c(cn1)CN(c1c(F)c(OC)cc(OC)c1F)C(=O)C21CCCC1 [Example 7] came out at 6.70 to 7.52

Just so you know, measured pIC50 for C=CC(=O)NC1COCC1Nc1cc2c(cn1)CN(c1c(F)c(OC)cc(OC)c1F)C(=O)C21CC1 (racemic) [Example 4] came out at < 6.70
